STUDY_TARGET: menin-MLL interaction (Homo sapiens, UniProt O00255)
PROTOCOL: biochemical
A collection of compounds and their measured IC50

Recorded IC50, per entry:
COMPOUND: Cc1c(CN2CCC(Nc3ncnc4sc(CC(F)(F)F)cc34)CC2)ccc2c1cc(C#N)n2CCN1CCN(C(=O)N(C)C)CC1 [Compound 376]
REPORTED_VALUE: < 100 nM
//
COMPOUND: NCc1nnc(N2CCN(c3ncnc4sc(CC(F)(F)F)cc34)CC2)s1 [Compound 4]
REPORTED_VALUE: 100 to 500 nM
//
COMPOUND: Cn1cc(S(=O)(=O)Nc2ccc(CC(=O)N3CCN(c4ncnc5sc(CC(F)(F)F)cc45)CC3)cc2)cn1 [Compound 83]
REPORTED_VALUE: 100 to 500 nM
//
COMPOUND: CC(C)NCCS(=O)(=O)Nc1ccc(CC(=O)N2CCN(c3ncnc4sc(CC(F)(F)F)cc34)CC2)cc1 [Compound 60]
REPORTED_VALUE: < 100 nM

Recall and state the measured IC50 for COCCOCCOC(CO)Cn1c(C#N)cc2cc(CN3CCC(Nc4ncnc5sc(CC(F)(F)F)cc45)CC3)ccc21 (centres unmarked) [Compound 319] .
< 100 nM

---

A collection of molecules and their measured IC50
STUDY_TARGET: menin-MLL interaction (Homo sapiens, UniProt O00255)
Sequence (O00255 1-610): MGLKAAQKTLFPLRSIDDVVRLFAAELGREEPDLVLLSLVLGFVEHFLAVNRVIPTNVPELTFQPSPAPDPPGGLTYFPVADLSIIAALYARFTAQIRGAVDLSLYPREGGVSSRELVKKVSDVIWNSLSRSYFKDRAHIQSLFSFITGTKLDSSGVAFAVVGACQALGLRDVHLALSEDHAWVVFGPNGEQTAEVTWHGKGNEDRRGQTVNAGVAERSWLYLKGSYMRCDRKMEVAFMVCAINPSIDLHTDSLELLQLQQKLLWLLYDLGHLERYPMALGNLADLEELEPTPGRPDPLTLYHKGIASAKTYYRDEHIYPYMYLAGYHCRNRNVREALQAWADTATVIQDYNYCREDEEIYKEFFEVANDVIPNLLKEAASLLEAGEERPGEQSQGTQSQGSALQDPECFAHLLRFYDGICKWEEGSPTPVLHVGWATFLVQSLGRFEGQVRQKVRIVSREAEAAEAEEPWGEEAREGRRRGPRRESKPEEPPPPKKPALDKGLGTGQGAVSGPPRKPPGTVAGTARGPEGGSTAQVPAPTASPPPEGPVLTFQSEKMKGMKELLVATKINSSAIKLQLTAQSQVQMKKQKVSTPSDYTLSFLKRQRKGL
PROTOCOL: biochemical

Recorded IC50, per entry:
MOLECULE: NS(=O)(=O)c1ccc(CN2CCC(Nc3ncnc4sc(CC(F)(F)F)cc34)CC2)cc1 [Compound 156]
IC50: 500 to 2000 nM
//
MOLECULE: N#Cc1cc2cc(CN3CCC(Nc4ncnc5sc(CC(F)(F)F)cc45)CC3)ccc2n1Cc1cn[nH]c1 [Compound 202]
IC50: < 100 nM
//
MOLECULE: CS(=O)(=O)N1CCC[C@H]1CN[C@H]1CN(Cc2ccccc2)CC[C@@H]1Nc1ncnc2sc(CC(F)(F)F)cc12 [Compound 172]
IC50: 100 to 500 nM
//
MOLECULE: COCCOCC(O)(CO)Cn1c(C#N)cc2cc(CN3CCC(Nc4ncnc5sc(CC(F)(F)F)cc45)CC3)ccc21 (centres unmarked) [Compound 314]
IC50: < 100 nM

# evaluate next
Recall and state the measured IC50 for CC1(C)CN=C(N2C[C@@H]3CC[C@H]2CN3c2ncnc3sc(CC(F)(F)F)cc23)S1 [Compound 2] .
< 100 nM
